Conditions: rat, in vivo, 30 mg/kg

{"columns": ["compound", "reading-unit", "Body weight Day 10"],
 "data": [
  ["NC[C@H]1O[C@H](O[C@H]2[C@H](O)[C@@H](O[C@H]3O[C@H](CO)[C@@H](O)[C@H](N)[C@H]3O)[C@H](N)C[C@@H]2N)[C@H](N)C[C@@H]1O [Tobramycin, tobramycin]", "g", 318]
]}

====

Experiment: Pharmacokinetics of Compound 1 after single bolus IV injection in beagle dogs (plasma)
Type: in vivo
Conditions: male, beagle, dog, plasma, iv, 10 mg/kg, beagle dogs, 10 mg/kg single bolus IV; Mean ± SD
metric-name: clearance

{"columns": ["record-smiles", "reading"],
 "data": [
  ["CN[C@@H]1[C@@H](O)[C@@H](O[C@@H]2[C@@H](O)[C@H](O[C@H]3OC(CNCCO)=CC[C@H]3N)[C@@H](N)C[C@H]2NC(=O)[C@@H](O)CCN)OC[C@]1(C)O", "2.05 mL/min/kg"]
]}

====

Test: Pharmacokinetics of Compound 1 after single bolus IV injection in beagle dogs (plasma)
Format: in vivo
Conditions: male, beagle, dog, plasma, iv, 10 mg/kg, beagle dogs, 10 mg/kg single bolus IV; Dog 603; read-out: Vss
Experimental: Male CD-1 mice, Sprague Dawley rats, and beagle dogs were administered Compound 1 intravenously. Compound 1 was preformulated as a sterile isotonic solution of 10 mg/mL in PBS. […] Samples were centrifuged, and plasma was collected and transferred into a new tube and frozen at −80° C. until they were analyzed. Blood, urine, and kidney samples collected over 24 hours were analyzed for Compound 1 levels using LC-MS/MS. […]
metric-name: Vd (L)

{"columns": ["molecule", "reading-unit", "reading"],
 "data": [
  ["CN[C@@H]1[C@@H](O)[C@@H](O[C@@H]2[C@@H](O)[C@H](O[C@H]3OC(CNCCO)=CC[C@H]3N)[C@@H](N)C[C@H]2NC(=O)[C@@H](O)CCN)OC[C@]1(C)O [Compound 1]", "L", 0.162]
]}

====

Assay: Pharmacokinetics of Compound 1 after single bolus IV injection in rats
Assay type: in vivo, Sprague Dawley rats
Conditions: Sprague Dawley, rat, plasma, iv, 10 mg/kg, 10 mg/kg single bolus IV, Rat 101, read-out: Vss

{"columns": ["compound", "Vd (L/kg)"],
 "data": [
  ["CN[C@@H]1[C@@H](O)[C@@H](O[C@@H]2[C@@H](O)[C@H](O[C@H]3OC(CNCCO)=CC[C@H]3N)[C@@H](N)C[C@H]2NC(=O)[C@@H](O)CCN)OC[C@]1(C)O [Compound 1]", 0.403]
]}

====

Assay: Pharmacokinetics of Compound 1 after single bolus IV injection in rats
Type: in vivo, Sprague Dawley rats
Conditions: Sprague Dawley, rat, plasma, iv, 10 mg/kg, 10 mg/kg single bolus IV, Mean ± SD, read-out: Vss
Experimental: Male CD-1 mice, Sprague Dawley rats, and beagle dogs were administered Compound 1 intravenously. Compound 1 was preformulated as a sterile isotonic solution of 10 mg/mL in PBS. […] Samples were centrifuged, and plasma was collected and transferred into a new tube and frozen at −80° C. until they were analyzed. Blood, urine, and kidney samples collected over 24 hours were analyzed for Compound 1 levels using LC-MS/MS. […]
metric-name: Vd (L/kg)

{"columns": ["record-smiles", "metric-name", "reading"],
 "data": [
  ["CN[C@@H]1[C@@H](O)[C@@H](O[C@@H]2[C@@H](O)[C@H](O[C@H]3OC(CNCCO)=CC[C@H]3N)[C@@H](N)C[C@H]2NC(=O)[C@@H](O)CCN)OC[C@]1(C)O", "Vd", 0.437]
]}

====

Test: Pharmacokinetics of Compound 1 after single bolus IV injection in beagle dogs (plasma)
Type: in vivo
Conditions: male, beagle, dog, plasma, iv, 10 mg/kg, beagle dogs, 10 mg/kg single bolus IV; Dog 601
Description: Male CD-1 mice, Sprague Dawley rats, and beagle dogs were administered Compound 1 intravenously. Compound 1 was preformulated as a sterile isotonic solution of 10 mg/mL in PBS. […] Samples were centrifuged, and plasma was collected and transferred into a new tube and frozen at −80° C. until they were analyzed. Blood, urine, and kidney samples collected over 24 hours were analyzed for Compound 1 levels using LC-MS/MS. […]
metric-name: AUC(0-inf) (ng·h/mL)

{"columns": ["compound", "reading-unit", "reading"],
 "data": [
  ["CN[C@@H]1[C@@H](O)[C@@H](O[C@@H]2[C@@H](O)[C@H](O[C@H]3OC(CNCCO)=CC[C@H]3N)[C@@H](N)C[C@H]2NC(=O)[C@@H](O)CCN)OC[C@]1(C)O [Compound 1]", "ng·h/mL", 69400]
]}

====

Assay: First-in-human phase 1 study: plasma pharmacokinetics of Compound 1
Format: in vivo
Conditions: both sexes, human, plasma, intravenous, 11 mg/kg, human plasma, single dose, 48 hours, Cohort 3 (11 mg/kg)
From the text: The initial, first-in-human (FIH) phase 1 study was a double-blind, randomized, placebo-controlled, parallel-group, single- and multiple-dose-escalation study to assess the safety, tolerability, and pharmacokinetics of Compound 1 administered IV to healthy adult volunteers. In addition, the design of this FIH phase 1 study provided rationale and support for dosing for the proposed phase 2 study in patients with cUTI (see FIG. 11). […]

{"columns": ["record-smiles", "AUC(0-inf) [µg·h/mL]"],
 "data": [
  ["CN[C@@H]1[C@@H](O)[C@@H](O[C@@H]2[C@@H](O)[C@H](O[C@H]3OC(CNCCO)=CC[C@H]3N)[C@@H](N)C[C@H]2NC(=O)[C@@H](O)CCN)OC[C@]1(C)O", 176]
]}

====

Assay: First-in-human phase 1 study: plasma pharmacokinetics of Compound 1
Type: in vivo
Settings: both sexes, human, plasma, intravenous, 1 mg/kg, human plasma, single dose, 24 hours, Cohort 1 a (1 mg/kg), compartmental (2) analysis, ± SE; read-out: t1/2 beta (converted)
Source text: The initial, first-in-human (FIH) phase 1 study was a double-blind, randomized, placebo-controlled, parallel-group, single- and multiple-dose-escalation study to assess the safety, tolerability, and pharmacokinetics of Compound 1 administered IV to healthy adult volunteers. In addition, the design of this FIH phase 1 study provided rationale and support for dosing for the proposed phase 2 study in patients with cUTI (see FIG. 11). […]
metric-name: half-life

{"columns": ["compound", "metric-name", "reading"],
 "data": [
  ["CN[C@@H]1[C@@H](O)[C@@H](O[C@@H]2[C@@H](O)[C@H](O[C@H]3OC(CNCCO)=CC[C@H]3N)[C@@H](N)C[C@H]2NC(=O)[C@@H](O)CCN)OC[C@]1(C)O [Compound 1]", "half-life", "3.5 h"]
]}

====

Test: First-in-human phase 1 study: plasma pharmacokinetics of Compound 1
Type: in vivo
Conditions: both sexes, human, plasma, intravenous, 15 mg/kg, human plasma, single dose, 24 hours, Cohort 4 (15 mg/kg), compartmental (2) analysis, ± SE; read-out: t1/2 beta (converted)

{"columns": ["compound", "half-life / h"],
 "data": [
  ["CN[C@@H]1[C@@H](O)[C@@H](O[C@@H]2[C@@H](O)[C@H](O[C@H]3OC(CNCCO)=CC[C@H]3N)[C@@H](N)C[C@H]2NC(=O)[C@@H](O)CCN)OC[C@]1(C)O [Compound 1]", 3.1]
]}

====

Conditions: rat, in vivo, 30 mg/kg

{"columns": ["record-smiles", "reading-unit", "Body weight Day 8"],
 "data": [
  ["NC[C@H]1O[C@H](O[C@H]2[C@H](O)[C@@H](O[C@H]3O[C@H](CO)[C@@H](O)[C@H](N)[C@H]3O)[C@H](N)C[C@@H]2N)[C@H](N)C[C@@H]1O", "g", 295]
]}

====

Details: rat, in vivo, 10 mg/kg
metric-name: Body weight Day 10 (g)

{"columns": ["record-smiles", "metric-name", "reading"],
 "data": [
  ["NC[C@H]1O[C@H](O[C@H]2[C@H](O)[C@@H](O[C@H]3O[C@H](CO)[C@@H](O)[C@H](N)[C@H]3O)[C@H](N)C[C@@H]2N)[C@H](N)C[C@@H]1O", "Body weight Day 10", 327]
]}

====

Test: First-in-human phase 1 study: plasma pharmacokinetics of Compound 1
Format: in vivo
Settings: both sexes, human, plasma, intravenous, 11 mg/kg, human plasma, single dose, 24 hours, Cohort 3 (11 mg/kg), compartmental (2) analysis, ± SE
metric-name: Cmax (µg/mL)

{"columns": ["record-smiles", "reading-unit", "reading"],
 "data": [
  ["CN[C@@H]1[C@@H](O)[C@@H](O[C@@H]2[C@@H](O)[C@H](O[C@H]3OC(CNCCO)=CC[C@H]3N)[C@@H](N)C[C@H]2NC(=O)[C@@H](O)CCN)OC[C@]1(C)O", "µg/mL", 106]
]}

====

Experiment: First-in-human phase 1 study: plasma pharmacokinetics of Compound 1
Type: in vivo
Conditions: both sexes, human, plasma, intravenous, 15 mg/kg, human plasma, single dose, 48 hours, Cohort 4 (15 mg/kg), compartmental (2) analysis; read-out: t½ alpha (converted)
metric-name: half-life (h)

{"columns": ["molecule", "reading"],
 "data": [
  ["CN[C@@H]1[C@@H](O)[C@@H](O[C@@H]2[C@@H](O)[C@H](O[C@H]3OC(CNCCO)=CC[C@H]3N)[C@@H](N)C[C@H]2NC(=O)[C@@H](O)CCN)OC[C@]1(C)O [Compound 1]", 3]
]}
